Could you please report measured Plant response rating, Nightshade for the items listed next?
system: Nightshade; test: Test C preemergence; assay type: in vivo; details: Rate 125 g/ha, scale 0 to 100, 0 no effect, 100 complete control
Excerpt: […]
Numbers only.

Observe how each entry below is paired with its result.
In [3]: df
Out[3]:
                                   molecule                   measurement_kind  endpoint_value
0  CC(C)(C)c1ccn(C2CCN(c3cccc(Cl)c3)C2=O)n1 (centres unmarked)  Plant response rating, Nightshade               0
1  O=C1C(n2ccc(C3CC3)n2)CCN1c1cccc(C(F)(F)F)c1 (centres unmarked)  Plant response rating, Nightshade               0
2  CCC(C)c1ccn(C2OCN(c3cccc(OC(F)(F)F)c3)C2=O)n1 (centres unmarked)  Plant response rating, Nightshade              70

Kindly give each listed record's Plant response rating, Nightshade.
1. CC(C)(C)c1ccn(C2CCN(c3cccc(OC(F)(F)F)c3)C2=O)n1 (centres unmarked)
2. CCC(CC)c1ccn(C2SCN(c3cccc(C(F)(F)F)c3)C2=O)n1 (centres unmarked)

[30, 100]

* * *

tested on: chickweed (Stellaria media); assay: Test C postemergence; assay type: in vivo; details: Rate 500 g/ha, scale 0 to 100 (0 no effect, 100 complete control)
Field: Plant response rating, Chickweed. Provide a value for each of the compounds that follow.

Answered cases to consult:
>>> print(df.to_string())
                                   compound                  measurement_kind  endpoint_value
0  CCCOc1cc(N2CCC(n3ccc(C(C)(C)C)n3)C2=O)ccc1C (stereo not shown)  Plant response rating, Chickweed             100
1  COc1cc(N2CCC(n3ccc(C(C)C)n3)C2=O)ccc1C (stereo not shown)  Plant response rating, Chickweed             100
2  CC(C)(C)c1ccn(C2SCN(c3cccc(OC(F)(F)F)c3)C2=O)n1 (stereo not shown)  Plant response rating, Chickweed              90

Would you kindly look at the next entry?
Value lookup for Plant response rating, Chickweed; key = CCC(CC)c1ccn(C2SCN(c3cccc(C(F)(F)F)c3)C2=O)n1 (stereo not shown)
90

* * *

system: smallflower flatsedge (Cyperus difformis); assay: Test C flooded paddy test; type: in vivo; settings: flooded paddy test; Rate 62 g/ha; visually evaluated after 12 to 14 days; 0 = no effect, 100 = complete control
Please provide measured Plant response rating (scale 0 to 100), Flatsedge for the entries that follow.

Examples with their reported Plant response rating (scale 0 to 100), Flatsedge follow.
>>> df
                                   compound  endpoint_value
0  CCC(CC)c1ccn(C2CCN(c3ccc(Br)c(OC)c3)C2=O)n1 (stereo not drawn) [Compound 143]              90
1  CC(C)(C)c1ccn(C2CCN(c3ccc(F)c(C(F)(F)F)c3)C2=O)n1 (stereo not drawn) [Compound 146]              60
2  CCC(CC)c1ccn(C2CCN(c3ccc(F)c(C(F)(F)F)c3)C2=O)n1 (stereo not drawn) [Compound 144]              85
3  COc1cc(C)nc(N2CCC(n3ccc(C(C)(C)C)n3)C2=O)n1 (stereo not drawn) [Compound 137]               0

For each of the compounds below, note its Plant response rating (scale 0 to 100), Flatsedge.
1. CCC(CC)c1ccn(C2OCN(c3cccc(OC(F)F)c3)C2=O)n1 (stereo not drawn) [Compound 131]
2. CC(C)(C)C1=NN(C2CCN(c3cccc(C(F)(F)F)c3)C2=O)CC1 (stereo not drawn) [Compound 135]

[90, 0]

Where do the numbers come from? From patent US7138361B2.
